kon by entry:
- assayedSystem: T1, recombinant human ASM protein (human, UniProt P17405 47-630)
- T1 construct: Recombinant human ASM in solution; also called acid sphingomyelinase (ASM) protein
- T1 sequence: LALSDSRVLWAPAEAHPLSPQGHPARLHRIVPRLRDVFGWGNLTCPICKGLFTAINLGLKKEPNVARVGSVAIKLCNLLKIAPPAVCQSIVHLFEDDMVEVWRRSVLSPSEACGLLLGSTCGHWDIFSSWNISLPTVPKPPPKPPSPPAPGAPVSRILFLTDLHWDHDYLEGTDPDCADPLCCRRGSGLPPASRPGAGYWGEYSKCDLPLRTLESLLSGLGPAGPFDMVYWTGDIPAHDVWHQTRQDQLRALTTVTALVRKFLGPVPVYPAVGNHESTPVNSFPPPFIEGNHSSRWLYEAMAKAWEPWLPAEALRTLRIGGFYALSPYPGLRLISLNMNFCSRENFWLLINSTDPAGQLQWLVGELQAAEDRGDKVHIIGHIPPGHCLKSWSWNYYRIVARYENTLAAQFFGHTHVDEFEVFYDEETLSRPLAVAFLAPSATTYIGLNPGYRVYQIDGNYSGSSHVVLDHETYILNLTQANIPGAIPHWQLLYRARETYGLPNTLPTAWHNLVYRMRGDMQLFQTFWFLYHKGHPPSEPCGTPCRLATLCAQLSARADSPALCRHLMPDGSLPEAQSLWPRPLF
- assayNotes: BLI (Octet), antibody on AHC sensor

{"columns": ["binder", "kon (M⁻¹ s⁻¹)"],
 "data": [
  ["#9104a-B1 (antibody, human IgG4 S228P, lambda, V domains shown, VH of #9104v-H10 with VL of #9104v-L21; full-length IgG, lambda) VH: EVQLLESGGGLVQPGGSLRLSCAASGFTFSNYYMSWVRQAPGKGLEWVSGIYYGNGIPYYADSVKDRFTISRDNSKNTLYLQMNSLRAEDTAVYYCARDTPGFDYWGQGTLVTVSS VL: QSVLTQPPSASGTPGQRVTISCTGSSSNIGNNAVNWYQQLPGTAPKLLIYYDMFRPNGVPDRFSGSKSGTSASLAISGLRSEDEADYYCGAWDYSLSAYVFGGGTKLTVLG", 253000],
  ["#9104a-C2 (antibody, human IgG4 S228P, lambda, V domains shown, VH of #9104v-H11 with VL of #9104v-L23; full-length IgG, lambda) VH: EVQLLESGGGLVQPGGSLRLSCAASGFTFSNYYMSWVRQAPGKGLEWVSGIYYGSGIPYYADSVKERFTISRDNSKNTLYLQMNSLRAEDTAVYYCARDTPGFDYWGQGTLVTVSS VL: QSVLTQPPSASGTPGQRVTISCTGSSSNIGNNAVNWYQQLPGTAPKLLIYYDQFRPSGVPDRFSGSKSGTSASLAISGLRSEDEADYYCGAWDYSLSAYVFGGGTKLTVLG", 306000],
  ["#9104a-D2 (antibody, human IgG4 S228P, lambda, V domains shown, VH of #9104v-H11 with VL of #9104v-L64; full-length IgG, lambda) VH: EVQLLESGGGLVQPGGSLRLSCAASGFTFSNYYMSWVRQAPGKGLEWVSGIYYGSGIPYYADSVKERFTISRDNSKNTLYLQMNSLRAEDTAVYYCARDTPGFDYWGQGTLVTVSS VL: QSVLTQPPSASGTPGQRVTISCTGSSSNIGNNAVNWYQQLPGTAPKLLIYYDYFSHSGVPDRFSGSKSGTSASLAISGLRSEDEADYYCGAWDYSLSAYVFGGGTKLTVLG", 351000]
]}

Taken from patent US20260201064A1.
